# EXPERIMENTAL_SETUP: 293.15 K, Ring tensiometer
What surface tension liquid-gas was measured for each of the following?
Number only, in mN/m; omit the unit.

-- ask Quickly give me recorded surface tension liquid-gas for `CCCCCCCCCCCCCC[P+](CCCCCC)(CCCCCC)CCCCCC.O=S(=O)([N-]S(=O)(=O)C(F)(F)F)C(F)(F)F`
-- reply 30.75

-- ask Quickly give me recorded surface tension liquid-gas for `CCCCn1cc[n+](C)c1C.O=S(=O)([N-]S(=O)(=O)C(F)(F)F)C(F)(F)F`
-- reply 37.4

-- ask Quickly give me recorded surface tension liquid-gas for `CCCC[N+]1(C)CCCC1.O=S(=O)([N-]S(=O)(=O)C(F)(F)F)C(F)(F)F`
-- reply 34.93

-- ask Quickly give me recorded surface tension liquid-gas for CCn1cc[n+](CC)c1.O=S(=O)([N-]S(=O)(=O)C(F)(F)F)C(F)(F)F [1,3-diethylimidazolium bis[(trifluoromethyl)sulfonyl]imide]
-- reply 35.76

-- ask Quickly give me recorded surface tension liquid-gas for `CCC[N+]1(C)CCCC1.O=S(=O)([N-]S(=O)(=O)C(F)(F)F)C(F)(F)F`
-- reply 32.54

-- ask Quickly give me recorded surface tension liquid-gas for `CCC[n+]1cccc(C)c1.O=S(=O)([N-]S(=O)(=O)C(F)(F)F)C(F)(F)F`
-- reply 36
